FYI, the data here is from patent US12428395B2.

biological target: CHK-1 kinase (Homo sapiens (Human)); experiment: CHK-1 Kinase Assay (Z-LYTE based TR-FRET); type: biochemical; conditions: 1 μM compound; read-out: % Inhibition of CHK-1 enzyme activity @ 1 μM
Sequence (O14757 whole entry): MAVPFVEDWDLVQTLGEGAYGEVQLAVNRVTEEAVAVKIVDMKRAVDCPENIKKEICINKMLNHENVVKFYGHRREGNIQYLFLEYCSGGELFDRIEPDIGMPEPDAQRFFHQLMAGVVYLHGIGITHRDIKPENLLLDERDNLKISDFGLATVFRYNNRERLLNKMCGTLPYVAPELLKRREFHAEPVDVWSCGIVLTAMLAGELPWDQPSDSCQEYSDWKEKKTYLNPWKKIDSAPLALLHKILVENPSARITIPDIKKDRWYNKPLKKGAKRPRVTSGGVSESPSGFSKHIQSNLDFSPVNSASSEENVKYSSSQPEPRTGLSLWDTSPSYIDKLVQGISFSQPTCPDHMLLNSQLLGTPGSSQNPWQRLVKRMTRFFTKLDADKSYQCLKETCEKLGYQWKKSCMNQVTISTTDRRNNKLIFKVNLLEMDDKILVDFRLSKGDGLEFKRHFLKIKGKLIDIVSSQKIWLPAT
The label depends only on inhibition at 1 µM: 1 (yes) if it is at least 20%, 0 (no) if it is smaller.

CN1CCC(CNc2cnnc(Nc3cnc(C#N)cn3)c2)CC1 :: 0 (no)
Cn1ccc(-c2nnc(Nc3cnc(C#N)cn3)cc2OCC2CNCCO2)n1 (centres unmarked) :: 0 (no)
N#Cc1cnc(Nc2cc(NCC3CCNCC3)c(-c3cccc4[nH]ccc34)nn2)cn1 :: 0 (no)
CNC(=O)c1nnc(Nc2cnc(C#N)cn2)cc1NCC1CCOCC1 :: 1 (yes)
N#Cc1cnc(Nc2cc(NCC3CCNCC3)c(-c3ccc(Oc4ccccc4)cc3)nn2)cn1 :: 1 (yes)
N#Cc1cnc(Nc2cc(NCC3CNCCO3)c(C3CC3)nn2)cn1 (centres unmarked) :: 0 (no)
CNC(=O)c1nnc(Nc2cnc(C#N)cn2)cc1NCC1CCN(C)CC1 :: 1 (yes)
Cc1nnc(Nc2cnc(C#N)cn2)cc1NCC1CCNCC1 :: 0 (no)
N#Cc1cnc(Nc2cc(NCC3CCNCC3)c(C3CC3)nn2)cn1 :: 1 (yes)
Cn1cc(Nc2cc(NCC3CNCCO3)c(-c3ccccc3)nn2)cn1 (centres unmarked) :: 0 (no)
N#Cc1cnc(Nc2cc(NCC3CNCCO3)c(C(N)=O)nn2)cn1 (centres unmarked) :: 1 (yes)
CN1CCC(Nc2cc(Nc3cnc(C#N)cn3)nnc2C(N)=O)CC1 :: 1 (yes)
CNC(=O)c1nnc(Nc2cnc(C#N)cn2)cc1NC[C@@H]1CNCCO1 (stereo in doubt) :: 1 (yes)
COc1ccc(-c2nnc(Nc3cnc(C#N)cn3)cc2NCC2CCNCC2)cc1 :: 0 (no)
N#Cc1cnc(Nc2cc(NCC3CCOCC3)c(C(N)=O)nn2)cn1 :: 1 (yes)
N#Cc1cnc(Nc2cc(NCC3CNCCO3)c(C(=O)NC3CC3)nn2)cn1 (centres unmarked) :: 1 (yes)
N#Cc1cnc(Nc2cc(NCC3CCNCC3)c(-c3ccccc3)nn2)cn1 :: 0 (no)

----------
molecular target: CHK-1 kinase (Homo sapiens (Human)); assay: CHK-1 Kinase Assay (Z-LYTE based TR-FRET); assay type: biochemical; settings: 0.1 μM compound; read-out: % Inhibition of CHK-1 enzyme activity @ 0.1 μM
OBSERVATION TYPE: inhibition at 0.1 µM (%)

N#Cc1cnc(Nc2cc(NCC3CCNCC3)c(-c3cccc(N4CCCCC4)c3)nn2)cn1 :: 8
CNC(=O)c1nnc(Nc2cnc(C#N)cn2)cc1NC[C@@H]1CNCCO1 (stereo in doubt) :: 77
Cc1nnc(Nc2cnc(C#N)cn2)cc1NCC1CCNCC1 :: 7
CNC(=O)c1nnc(Nc2cnc(C#N)cn2)cc1NCC1CCN(C)CC1 :: 49
COc1cccc(-c2nnc(Nc3cnc(C#N)cn3)cc2NCC2CCNCC2)c1 :: 0
N#Cc1cnc(Nc2cc(NCC3CCNCC3)c(-c3ccc(CO)cc3)nn2)cn1 :: 0
CN1CCC(Nc2cc(Nc3cnc(C#N)cn3)nnc2C(N)=O)CC1 :: 61
N#Cc1cnc(Nc2cc(NCC3CNCCO3)c(C(=O)NC3CC3)nn2)cn1 (stereo not shown) :: 63
N#Cc1cnc(Nc2cc(NCC3CCNCC3)c(-c3ccc(Oc4ccccc4)cc3)nn2)cn1 :: 8
COc1ccc(-c2nnc(Nc3cnc(C#N)cn3)cc2NCC2CCNCC2)cc1 :: 7
